assay info: Approximate solubility of Sample 4 by solvent aliquot addition, visual inspection; post-solubility storage
Assay type: physicochemical
protocol conditions: organic solvent or mixture, thermodynamic from solid; [EMIm][NTF2], ambient temperature
reported endpoint: solubility

- structure string: "C[C@@]12OC(=O)[C@]1([C@@H](O)[C@@H]1C=CCCC1)NC(=O)[C@@H]2CCCl"
  result: "1000 µg/mL"

====

assay info: Approximate solubility of Sample 4 by solvent aliquot addition, visual inspection; post-solubility storage
Format: physicochemical
protocol conditions: organic solvent or mixture, thermodynamic from solid; 50:50 EtOAc/cyclohexane (v/v), ambient temperature

- structure string: "C[C@@]12OC(=O)[C@]1([C@@H](O)[C@@H]1C=CCCC1)NC(=O)[C@@H]2CCCl"
  solubility, µg/mL: 4000

====

assay info: Approximate solubility of Sample 4 by solvent aliquot addition, visual inspection; post-solubility storage
Assay type: physicochemical
protocol conditions: organic solvent or mixture, thermodynamic from solid; 1-propanol, ambient temperature
reported endpoint: solubility

- compound: "C[C@@]12OC(=O)[C@]1([C@@H](O)[C@@H]1C=CCCC1)NC(=O)[C@@H]2CCCl [Sample 4, marizomib]"
  result: "2000 µg/mL"

====

assay info: Approximate solubility of Sample 4 by solvent aliquot addition, visual inspection; post-solubility storage
Format: physicochemical
protocol conditions: organic solvent or mixture, thermodynamic from solid; 20:80 NMP/IPA (v/v), ambient temperature
reported endpoint: solubility (mg/mL)

- structure string: "C[C@@]12OC(=O)[C@]1([C@@H](O)[C@@H]1C=CCCC1)NC(=O)[C@@H]2CCCl"
  reported endpoint: "solubility"
  unit abbrev: "mg/mL"
  result number: 19

====

assay info: Approximate solubility of Sample 4 by solvent aliquot addition, visual inspection; post-solubility storage
Format: physicochemical
protocol conditions: organic solvent or mixture, thermodynamic from solid; 20:80 MEK/IPA (v/v), ambient temperature

- structure string: "C[C@@]12OC(=O)[C@]1([C@@H](O)[C@@H]1C=CCCC1)NC(=O)[C@@H]2CCCl"
  unit abbrev: "µg/mL"
  solubility: 10000

====

assay info: Approximate solubility of Sample 4 by solvent aliquot addition, visual inspection; post-solubility storage
Assay type: physicochemical
protocol conditions: organic solvent or mixture, thermodynamic from solid; 50:50 MeOH/Et2O (v/v), ambient temperature

- structure string: "C[C@@]12OC(=O)[C@]1([C@@H](O)[C@@H]1C=CCCC1)NC(=O)[C@@H]2CCCl"
  solubility [mg/mL]: 21

====

assay info: Approximate solubility of Sample 4 by solvent aliquot addition, visual inspection; post-solubility storage
Type: physicochemical
protocol conditions: organic solvent or mixture, thermodynamic from solid; NMP, ambient temperature

- compound: "C[C@@]12OC(=O)[C@]1([C@@H](O)[C@@H]1C=CCCC1)NC(=O)[C@@H]2CCCl [Sample 4, marizomib]"
  solubility: "5000 µg/mL"

====

assay info: Approximate solubility of Sample 4 by solvent aliquot addition, visual inspection; post-solubility storage
Type: physicochemical
protocol conditions: organic solvent or mixture, thermodynamic from solid; [EMIm][Cl], ambient temperature

- compound: "C[C@@]12OC(=O)[C@]1([C@@H](O)[C@@H]1C=CCCC1)NC(=O)[C@@H]2CCCl [Sample 4, marizomib]"
  solubility: "< 2000 µg/mL"

====

assay info: Approximate solubility of Sample 4 by solvent aliquot addition, visual inspection; post-solubility storage
Type: physicochemical
protocol conditions: organic solvent or mixture, thermodynamic from solid; EtOAc, ambient temperature

- compound: "C[C@@]12OC(=O)[C@]1([C@@H](O)[C@@H]1C=CCCC1)NC(=O)[C@@H]2CCCl [Sample 4, marizomib]"
  unit abbrev: "mg/mL"
  solubility: 15

====

assay info: Approximate solubility of Sample 4 by solvent aliquot addition, visual inspection; post-solubility storage
Assay type: physicochemical
protocol conditions: aqueous with cosolvent or surfactant or cyclodextrin, thermodynamic from solid; Formulation System A (55% propylene glycol + 5% EtOH + 40% citrate buffer 10 mM pH 5), ambient temperature
reported endpoint: solubility

- compound: "C[C@@]12OC(=O)[C@]1([C@@H](O)[C@@H]1C=CCCC1)NC(=O)[C@@H]2CCCl [Sample 4, marizomib]"
  result: "< 1000 µg/mL"

====

assay info: Approximate solubility of Sample 4 by solvent aliquot addition, visual inspection; post-solubility storage
Format: physicochemical
protocol conditions: organic solvent or mixture, thermodynamic from solid; MeOAc, ambient temperature
reported endpoint: solubility (mg/mL)

- compound: "C[C@@]12OC(=O)[C@]1([C@@H](O)[C@@H]1C=CCCC1)NC(=O)[C@@H]2CCCl [Sample 4, marizomib]"
  reported endpoint: "solubility"
  result number: 20

====

assay info: Approximate solubility of Sample 4 by solvent aliquot addition, visual inspection; post-solubility storage
Type: physicochemical
protocol conditions: organic solvent or mixture, thermodynamic from solid; 20:80 CHCl3/DCM (v/v), ambient temperature

- molecule: "C[C@@]12OC(=O)[C@]1([C@@H](O)[C@@H]1C=CCCC1)NC(=O)[C@@H]2CCCl [Sample 4, marizomib]"
  unit abbrev: "µg/mL"
  solubility: 3000

====

assay info: Approximate solubility of Sample 4 by solvent aliquot addition, visual inspection; post-solubility storage
Format: physicochemical
protocol conditions: organic solvent or mixture, thermodynamic from solid; 2-Me THF, ambient temperature
reported endpoint: solubility (mg/mL)

- structure string: "C[C@@]12OC(=O)[C@]1([C@@H](O)[C@@H]1C=CCCC1)NC(=O)[C@@H]2CCCl"
  reported endpoint: "solubility"
  result number: 32

====

assay info: Approximate solubility of Sample 4 by solvent aliquot addition, visual inspection; post-solubility storage
Assay type: physicochemical
protocol conditions: organic solvent or mixture, thermodynamic from solid; 25:75 DMF/anisole (v/v), ambient temperature

- structure string: "C[C@@]12OC(=O)[C@]1([C@@H](O)[C@@H]1C=CCCC1)NC(=O)[C@@H]2CCCl"
  solubility / mg/mL: 17

====

assay info: Approximate solubility of Sample 4 by solvent aliquot addition, visual inspection; post-solubility storage
Type: physicochemical
protocol conditions: organic solvent or mixture, thermodynamic from solid; acetic acid, ambient temperature

- molecule: "C[C@@]12OC(=O)[C@]1([C@@H](O)[C@@H]1C=CCCC1)NC(=O)[C@@H]2CCCl [Sample 4, marizomib]"
  solubility / µg/mL: 10000

====

assay info: Approximate solubility of Sample 4 by solvent aliquot addition, visual inspection; post-solubility storage
Assay type: physicochemical
protocol conditions: organic solvent or mixture, thermodynamic from solid; ACN, ambient temperature
reported endpoint: solubility (µg/mL)

- compound: "C[C@@]12OC(=O)[C@]1([C@@H](O)[C@@H]1C=CCCC1)NC(=O)[C@@H]2CCCl [Sample 4, marizomib]"
  unit abbrev: "µg/mL"
  result number: 10000

====

assay info: Approximate solubility of Sample 4 by solvent aliquot addition, visual inspection; post-solubility storage
Format: physicochemical
protocol conditions: organic solvent or mixture, thermodynamic from solid; acetone, ambient temperature

- structure string: "C[C@@]12OC(=O)[C@]1([C@@H](O)[C@@H]1C=CCCC1)NC(=O)[C@@H]2CCCl"
  solubility, mg/mL: 39

====

assay info: Approximate solubility of Sample 4 by solvent aliquot addition, visual inspection; post-solubility storage
Format: physicochemical
protocol conditions: organic solvent or mixture, thermodynamic from solid; 50:50 acetone/heptane (v/v), ambient temperature

- structure string: "C[C@@]12OC(=O)[C@]1([C@@H](O)[C@@H]1C=CCCC1)NC(=O)[C@@H]2CCCl"
  solubility / mg/mL: 12

====

assay info: Approximate solubility of Sample 4 by solvent aliquot addition, visual inspection; post-solubility storage
Format: physicochemical
protocol conditions: organic solvent or mixture, thermodynamic from solid; DCM, ambient temperature
reported endpoint: solubility (µg/mL)

- molecule: "C[C@@]12OC(=O)[C@]1([C@@H](O)[C@@H]1C=CCCC1)NC(=O)[C@@H]2CCCl [Sample 4, marizomib]"
  result number: 2000

====

assay info: Approximate solubility of Sample 4 by solvent aliquot addition, visual inspection; post-solubility storage
Type: physicochemical
protocol conditions: organic solvent or mixture, thermodynamic from solid; tert-butanol, ambient temperature

- structure string: "C[C@@]12OC(=O)[C@]1([C@@H](O)[C@@H]1C=CCCC1)NC(=O)[C@@H]2CCCl"
  solubility: "3000 µg/mL"

====

assay info: Approximate solubility of Sample 4 by solvent aliquot addition, visual inspection; post-solubility storage
Format: physicochemical
protocol conditions: organic solvent or mixture, thermodynamic from solid; 50:50 EtOAc/isooctane (v/v), ambient temperature

- compound: "C[C@@]12OC(=O)[C@]1([C@@H](O)[C@@H]1C=CCCC1)NC(=O)[C@@H]2CCCl [Sample 4, marizomib]"
  solubility / µg/mL: 2000

Reference source: patent US10703760B2
